PROTOCOL TEXT: Plasma concentrations of EC-18 in non-irradiated and irradiated mice
Assay type: in vivo
RECORDED CONDITIONS: male, Balb/c, mouse, po, 500 mg/kg, day 7, 500 mg/kg oral daily, Irradiated 6.11 Gy
READOUT KIND: AUC(0-t) (ng·h/mL)

- MOLECULE: "CCCCC/C=C\\C/C=C\\CCCCCCCC(=O)OC(COC(C)=O)COC(=O)CCCCCCCCCCCCCCC (stereo not shown)"
  REPORTED RESULT: 123

====

PROTOCOL TEXT: Plasma concentrations of EC-18 in non-irradiated and irradiated mice
Format: in vivo
RECORDED CONDITIONS: male, Balb/c, mouse, po, 50 mg/kg, day 14, 50 mg/kg oral daily, Irradiated 6.11 Gy

- COMPOUND: "CCCCC/C=C\\C/C=C\\CCCCCCCC(=O)OC(COC(C)=O)COC(=O)CCCCCCCCCCCCCCC (stereo not shown) [EC-18, 1-palmitoyl-2-linoleoyl-3-acetylglycerol]"
  Cmax, ng/mL: 1.9

Value source: patent US12076307B2
